This collection of values is drawn from PubChem BioAssay.

# measurement-protocol: S. cerevisiae growth inhibition in restrictive medium, OD615, pilot screen, restrictive growth control, yeast lifespan reduction project (AID 706);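 note: modified DeaD lifespan yeast strain shifted to restrictive glucose medium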
# condition-label: OD615, 48 h, at 10 µM, active compounds read high
Let's look at some compounds and their measured growth inhibition.
Give your result in % as a bare value.

Field: example entries. Status: answers known.
compound: CCOc1ccc(C2CC(c3ccc(OC)cc3)n3ncnc3N2)cc1 (stereo unspecified)
growth inhibition [%]: 21
--
compound: Cc1cccc(Cc2c(C)nc3nc(SCC(=O)NCc4ccco4)nn3c2C)c1
growth inhibition [%]: 21.9
--
compound: COc1ccc(-c2nc(C#N)c(NCCCN3CCOCC3)o2)cc1
growth inhibition [%]: -5.34
--
compound: COc1cc(OC)cc(C(=O)Nc2cccc(NC(C)=O)c2)c1
growth inhibition [%]: -3.84
--
compound: Cc1c(C)c2ccc(OC3CCCCC3=O)cc2oc1=O (stereo unspecified)
growth inhibition [%]: -7.25

In: Name the recorded growth inhibition for Cc1nnc(SCC(=O)Nc2c(Cl)cccc2Cl)[nH]c1=O .
Out: 7.47
